- Assay Overview: Tanguay_ZF_120hpf_EYE_legacy: (Legacy) Oregon State University Tanguay Lab 120 Hour Post-fertilization zebrafish Assay for Eye Malformation (AID 2283636);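 further: binary presence or absence of eye malformation scored by brightfield in 120 hpf larvae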
Inconclusive results are not listed. Activity calls are given as the source filed them. How the source made its calls: active means hit-call score of the fitted dose curve at least 0.9, where 1 is the maximum; inconclusive means response in the unintended direction; inactive means score below 0.9.
Outcomes: active, inactive

{"Compound": "CCO[Si](CCCNC(N)=O)(OCC)OCC", "Group": "inactive"}
{"Compound": "Cc1cccc2ccccc12", "Group": "inactive"}
{"Compound": "Oc1ccc2ccccc2c1", "Group": "active"}
{"Compound": "O=c1ccc2ccccc2o1", "Group": "inactive"}
{"Compound": "Cc1oc2c(NC(=O)c3c(Cl)cccc3Cl)cccc2c1C(C)(C)O", "Group": "inactive"}
{"Compound": "COc1ccc2cc(S(=O)(=O)N[C@H](CC(=O)N[C@H](Cc3ccc(CN4[C@H](C)CCC[C@@H]4C)cc3)C(=O)N(C)C(C)C)c3ccc4c(c3)OCO4)ccc2c1", "Group": "inactive"}
{"Compound": "Cc1ncc(CO)c(CO)c1O", "Group": "inactive"}
{"Compound": "CC(O)CC(C)(C)O (stereo not drawn)", "Group": "inactive"}

###

- Assay Overview: Tanguay_ZF_120hpf_EYE_legacy: (Legacy) Oregon State University Tanguay Lab 120 Hour Post-fertilization zebrafish Assay for Eye Malformation (AID 2283636);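 further: binary presence or absence of eye malformation scored by brightfield in 120 hpf larvae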
- Procedure: Tanguay_ZF_120hpf_legacy is a whole embryo, multiplexed endpoint assay using zebrafish larvae exposed for 120 hours post fertilization on a 96-well plate.Tanguay_ZF_120hpf_EYE_legacy is one of one assay component(s) measured or calculated from the Tanguay_ZF_120hpf_legacy assay. […] This assay endpoint, Tanguay_ZF_120hpf_EYE_legacy, was analyzed in the positive analysis fitting direction relative to DMSO as the negative control and baseline of activity. […]
Results filed as inconclusive are left out. Active and inactive are the calls of the source. Rule for the calls: active = hit-call score of the fitted dose curve at least 0.9, where 1 is the maximum; inconclusive = response in the unintended direction; inactive = score below 0.9.

{"Chemical Smiles": "O=C(O)Cc1cc(I)c(Oc2ccc(O)c(I)c2)c(I)c1", "AC50": "inactive"}
{"Chemical Smiles": "Cc1ccc2oc(CN(Cc3ccccc3)C(=O)Nc3c(F)cc(F)cc3F)c(-c3ccc(Cl)cc3)c2c1", "AC50": "inactive"}
{"Chemical Smiles": "COc1cc(C(=O)NC2CCN(C)CC2)ccc1Nc1ncc2c(n1)N(C1CCCC1)CC(F)(F)C(=O)N2C", "AC50": "10.1 µM (active)"}
{"Chemical Smiles": "CCCCCCCCCCCO", "AC50": "inactive"}
{"Chemical Smiles": "O=C(O)Cn1c(=O)n(Cc2ccc(Br)cc2F)c(=O)c2ccc(Cl)cc21", "AC50": "inactive"}
{"Chemical Smiles": "CO[C@H]1/C=C/O[C@@]2(C)Oc3c(C)c(O)c4c(O)c(c(/C=N/N5CCN(C)CC5)c(O)c4c3C2=O)NC(=O)/C(C)=C\\C=C\\[C@H](C)[C@H](O)[C@@H](C)[C@@H](O)[C@@H](C)[C@H](OC(C)=O)[C@@H]1C", "AC50": "inactive"}
{"Chemical Smiles": "CCN(CC)C(=O)c1cc(S(=O)(=O)Cc2ccccc2)c(N2CCC(c3ccccc3)CC2)cc1N(CC)CCN(C)C", "AC50": "inactive"}
{"Chemical Smiles": "COc1cccc([C@H](O)C2CCN(CCc3ccc(F)cc3)CC2)c1OC", "AC50": "inactive"}
{"Chemical Smiles": "CCCOC(=O)c1cc(O)c(O)c(O)c1", "AC50": "inactive"}
{"Chemical Smiles": "CC1(C)NC(=O)N(c2ccc([N+](=O)[O-])c(C(F)(F)F)c2)C1=O", "AC50": "inactive"}
{"Chemical Smiles": "CC(C)(C)c1cc(/C=C2\\SC(N)=NC2=O)cc(C(C)(C)C)c1O", "AC50": "inactive"}
{"Chemical Smiles": "c1ccc2n[nH]nc2c1", "AC50": "inactive"}
{"Chemical Smiles": "NC(=O)c1nc(-c2cccc(-c3cc(F)ccc3OCC(F)(F)C(F)(F)F)c2)n[nH]1", "AC50": "9.38 µM (active)"}
{"Chemical Smiles": "O=CCCCC=O", "AC50": "inactive"}
{"Chemical Smiles": "O=c1[nH]sc2ccccc12", "AC50": "inactive"}
{"Chemical Smiles": "CCCCCCCCN(C)CCCCCCCC", "AC50": "inactive"}

###

- Read-out: Glutathione S-Transferase (GSTA2), GSTA2 (gene 2939)
- Assay Overview: LTEA_HepaRG_GSTA2: Life Technologies and Expression Analysis (LTEA) Assay for Glutathione S-Transferase (GSTA2) using HepaRG (AID 2283497)
- Condition Set: mRNA level, 48 h; actives raise or lower the signal
Active and inactive are the calls of the source. How the source made its calls: active means hit-call score of the fitted dose curve at least 0.9, where 1 is the maximum; inactive means score below 0.9.
Outcomes: 1 for active, 0 for inactive

{"Molecule": "c1ccc(C[n+]2cccc3ccccc32)cc1", "Group": 1}
{"Molecule": "CC[C@H](NC(=O)c1cc(F)ccc1NS(=O)(=O)c1cccc2cccnc12)c1ccccc1", "Group": 1}
{"Molecule": "O=c1ccc2ccccc2o1", "Group": 0}
{"Molecule": "CCCCCCCCN(C)CCCCCCCC", "Group": 0}
{"Molecule": "COc1ccc2cc(S(=O)(=O)N[C@H](CC(=O)N[C@H](Cc3ccc(CN4[C@H](C)CCC[C@@H]4C)cc3)C(=O)N(C)C(C)C)c3ccc4c(c3)OCO4)ccc2c1", "Group": 1}
{"Molecule": "OCCO", "Group": 0}
{"Molecule": "CCO[Si](CCCNC(N)=O)(OCC)OCC", "Group": 0}
{"Molecule": "Cc1ccc2oc(CN(Cc3ccccc3)C(=O)Nc3c(F)cc(F)cc3F)c(-c3ccc(Cl)cc3)c2c1", "Group": 1}
{"Molecule": "O=c1c(-c2ccc(O)cc2)coc2cc(O)cc(O)c12", "Group": 0}
{"Molecule": "CC(C)(c1cc(Br)c(O)c(Br)c1)c1cc(Br)c(O)c(Br)c1", "Group": 1}
{"Molecule": "CCN(CC)C(=O)c1cc(S(=O)(=O)Cc2ccccc2)c(N2CCC(c3ccccc3)CC2)cc1N(CC)CCN(C)C", "Group": 1}
{"Molecule": "c1ccc2n[nH]nc2c1", "Group": 0}
{"Molecule": "NC(=O)c1nc(-c2cccc(-c3cc(F)ccc3OCC(F)(F)C(F)(F)F)c2)n[nH]1", "Group": 0}
{"Molecule": "O=c1[nH]sc2ccccc12", "Group": 0}
{"Molecule": "CC1=CC(=O)/C(=C(/C)O)C(=O)O1", "Group": 0}
{"Molecule": "Cc1c2ccccc2c(C)c2c1ccc1ccccc12", "Group": 1}
{"Molecule": "CO[C@H]1/C=C/O[C@@]2(C)Oc3c(C)c(O)c4c(O)c(c(/C=N/N5CCN(C)CC5)c(O)c4c3C2=O)NC(=O)/C(C)=C\\C=C\\[C@H](C)[C@H](O)[C@@H](C)[C@@H](O)[C@@H](C)[C@H](OC(C)=O)[C@@H]1C", "Group": 1}
{"Molecule": "COCC(C)OCC(C)OCC(C)O (centres undefined)", "Group": 0}
{"Molecule": "Oc1ccccc1", "Group": 0}
{"Molecule": "O=C(O)Cn1c(=O)n(Cc2ccc(Br)cc2F)c(=O)c2ccc(Cl)cc21", "Group": 0}
{"Molecule": "CCOC(=O)O[C@H](C)OC(=O)c1ccc2c(c1)cc(C(=O)NC1CCN(C(C)C)CC1)n2Cc1cc(-c2ccc(Cl)s2)on1", "Group": 0}
{"Molecule": "CCCCCc1ccc(N)cc1", "Group": 0}
{"Molecule": "CN1C(=O)N(c2ccccc2Br)Cc2cnc(Nc3ccc4c(c3)OCC(CO)O4)nc21 (centres undefined)", "Group": 1}
{"Molecule": "Oc1ccc2ccccc2c1", "Group": 0}

###

- Read-out: Urokinase-type plasminogen activator receptor (uPAR), PLAUR (gene 5329)
- Assay Overview: BSK_4H_uPAR: BioMAP Diversity Plus: 4H Assay for Urokinase-type plasminogen activator receptor (uPAR) Biomarker Activity (AID 2283030)
- Condition Set: primary human endothelial cells (HUVEC); actives raise or lower the signal
- Experimental: BSK_4H is a cell-based, multiplexed-readout assay that uses umbilical vein endothelium, a human vascular primary cell, with measurements taken at 24 hours after chemical dosing in a 96-well plate.BSK_4HAR is an assay component measured in the BSK_4H assay. It measures uPAR antibody related to regulation of gene expression using ELISA technology.Data from the assay component BSK_4HAR was analyzed into 1 assay endpoint. […]
Active and inactive are the calls of the source. How the source made its calls: active means hit-call score of the fitted dose curve at least 0.9, where 1 is the maximum; inactive means score below 0.9.
Outcomes: active, inactive

{"Compound": "Cc1occc1C(=O)Nc1ccc(C(=O)N2CCC(F)(F)/C(=C\\C(=O)N3CCC(N4CCCCC4)CC3)c3ccccc32)cc1", "Group": "inactive"}
{"Compound": "CN1C(=O)N(c2ccccc2Br)Cc2cnc(Nc3ccc4c(c3)OCC(CO)O4)nc21 (centres undefined)", "Group": "active"}
{"Compound": "Cc1cc(F)ccc1-c1cc(N2CC[C@@H](O)[C@H]2CO)ncc1N(C)C(=O)C(C)(C)c1cc(C(F)(F)F)cc(C(F)(F)F)c1", "Group": "active"}
{"Compound": "O=C(O)c1ccccc1-n1cc(C(=O)O)c(=O)c2cc(Nc3c(F)cc(F)cc3Cl)c(Cl)cc21", "Group": "inactive"}
{"Compound": "O=c1c(-c2ccc(O)cc2)coc2cc(O)cc(O)c12", "Group": "active"}
{"Compound": "CCCCCCCCN(C)CCCCCCCC", "Group": "inactive"}
{"Compound": "CC(C)(C)c1cc(/C=C2\\SC(N)=NC2=O)cc(C(C)(C)C)c1O", "Group": "active"}
{"Compound": "CC/C(=C(/CC)c1ccc(O)cc1)c1ccc(O)cc1", "Group": "active"}
{"Compound": "CCN(Cc1cccc(S(=O)(=O)O)c1)c1ccc(C(=C2C=CC(=[N+](CC)Cc3cccc(S(=O)(=O)O)c3)C=C2)c2ccccc2S(=O)(=O)[O-])cc1", "Group": "inactive"}
{"Compound": "COCC(C)OCC(C)OCC(C)O (centres undefined)", "Group": "inactive"}
{"Compound": "CC(=O)N1CCN(c2ccc(OC[C@H]3CO[C@](Cn4ccnc4)(c4ccc(Cl)cc4Cl)O3)cc2)CC1", "Group": "active"}
{"Compound": "C[C@]12CC[C@@H]3c4ccc(O)cc4CC[C@H]3[C@@H]1CC[C@H]2O", "Group": "active"}
{"Compound": "CN(C)C(=O)C1(N2CCCCC2)CCN(CC[C@@]2(c3ccc(Cl)c(Cl)c3)CN(C(=O)c3ccccc3)CCO2)CC1", "Group": "active"}
{"Compound": "O=C(Nc1ccc(Cl)cc1)Nc1ccc(Cl)c(Cl)c1", "Group": "active"}
{"Compound": "O=CCCCC=O", "Group": "inactive"}
{"Compound": "O=C1c2ccccc2C(=O)N1CCc1noc(-c2ccc(CN3CCCCCC3)s2)n1", "Group": "active"}
{"Compound": "CCCCCCCC[Si](OCC)(OCC)OCC", "Group": "active"}
{"Compound": "CN(C[C@@H](CC[N+]12CCC(C3CCCCC3)(CC1)CC2)c1ccc(Cl)c(Cl)c1)C(=O)c1cc(C(F)(F)F)cc(C(F)(F)F)c1", "Group": "active"}
{"Compound": "Cc1ccc(C(C)C)cc1", "Group": "inactive"}
{"Compound": "CCCCCCCCCCCC[N+](C)(C)C", "Group": "active"}
{"Compound": "Oc1ccc2ccccc2c1", "Group": "inactive"}
{"Compound": "CC(C)(c1cc(Br)c(O)c(Br)c1)c1cc(Br)c(O)c(Br)c1", "Group": "active"}
{"Compound": "CO[C@H]1/C=C/O[C@@]2(C)Oc3c(C)c(O)c4c(O)c(c(/C=N/N5CCN(C)CC5)c(O)c4c3C2=O)NC(=O)/C(C)=C\\C=C\\[C@H](C)[C@H](O)[C@@H](C)[C@@H](O)[C@@H](C)[C@H](OC(C)=O)[C@@H]1C", "Group": "inactive"}
{"Compound": "Clc1ccccc1C(c1ccccc1)(c1ccccc1)n1ccnc1", "Group": "active"}
{"Compound": "CC1=CC(=O)/C(=C(/C)O)C(=O)O1", "Group": "inactive"}
{"Compound": "O=C(O)Cn1c(=O)n(Cc2ccc(Br)cc2F)c(=O)c2ccc(Cl)cc21", "Group": "inactive"}
{"Compound": "NCc1cccc(C2CCN(C(=O)c3ccc(C#Cc4ccccc4F)o3)CC2)c1", "Group": "active"}
{"Compound": "O=C1CCC(C2CCCCC2)CC1", "Group": "inactive"}
{"Compound": "O=C(OCCCCCCOC(=O)c1ccccc1)c1ccccc1", "Group": "inactive"}
